- Target Or System: T1, EsCas13d, nuclease-dead (Eubacterium siraeum, UniProt B0MS50, R295A;H300A;R849A;H854A)
- T1 sequence: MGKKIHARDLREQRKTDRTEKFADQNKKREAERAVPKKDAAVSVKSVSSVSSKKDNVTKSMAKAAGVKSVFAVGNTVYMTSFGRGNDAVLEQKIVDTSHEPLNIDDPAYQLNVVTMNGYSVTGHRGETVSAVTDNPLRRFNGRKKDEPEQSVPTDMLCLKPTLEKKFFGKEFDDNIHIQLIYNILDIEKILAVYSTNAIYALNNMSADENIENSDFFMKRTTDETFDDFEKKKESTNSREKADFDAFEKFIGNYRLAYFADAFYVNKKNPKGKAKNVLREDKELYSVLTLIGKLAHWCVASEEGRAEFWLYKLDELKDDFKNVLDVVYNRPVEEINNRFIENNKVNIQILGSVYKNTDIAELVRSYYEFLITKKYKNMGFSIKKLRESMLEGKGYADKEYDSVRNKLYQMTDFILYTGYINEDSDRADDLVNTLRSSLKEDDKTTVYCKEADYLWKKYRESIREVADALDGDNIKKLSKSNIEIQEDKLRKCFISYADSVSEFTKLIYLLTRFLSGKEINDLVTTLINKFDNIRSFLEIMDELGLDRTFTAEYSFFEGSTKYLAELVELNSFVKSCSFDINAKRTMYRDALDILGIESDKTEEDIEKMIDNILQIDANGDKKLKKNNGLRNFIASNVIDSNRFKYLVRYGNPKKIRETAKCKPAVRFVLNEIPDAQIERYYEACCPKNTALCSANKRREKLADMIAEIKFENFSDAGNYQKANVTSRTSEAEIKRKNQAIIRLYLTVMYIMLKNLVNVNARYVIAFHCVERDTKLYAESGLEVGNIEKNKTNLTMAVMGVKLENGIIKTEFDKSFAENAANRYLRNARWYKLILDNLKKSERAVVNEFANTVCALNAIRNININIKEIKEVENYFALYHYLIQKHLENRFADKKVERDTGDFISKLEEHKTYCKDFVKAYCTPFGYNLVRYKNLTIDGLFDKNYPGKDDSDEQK
- Assay Details: crRNA (strand 1, pre-loaded); Mg2+; 40 mM Tris-HCl pH 7.5, 150 mM NaCl, 6 mM MgCl2, 1 mM DTT, 0.1% Tween-20, 0.2 mg/ml BSA; 25 C; 10 min per concentration, then washed
- Measurement Setup: tags: His6-TwinStrep-SUMO cleaved; N-terminal SNAP kept (SNAP-Surface 488); label: 3' end held by stalled T7 RNA polymerase
Examples of binders with documented Kd follow.
# number only, unit nM dropped from output

// worked examples, Kd included
Binder	Units Text	Kd
target 1 insC 3' of 22,insU 3' of 7 (mixed) RNA 1: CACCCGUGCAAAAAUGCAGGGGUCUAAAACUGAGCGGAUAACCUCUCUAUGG RNA 2: GGGAAUGGAUCCACAUCUACGAAUUCGUACCCAUAGAGAGGUUAUCUCGCUCACCGAGAUCGGAAGAGCACACGU	nM	47
target 1 insU 3' of 5,insU 3' of 4 (mixed) RNA 1: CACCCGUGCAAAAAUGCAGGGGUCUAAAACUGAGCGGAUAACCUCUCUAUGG RNA 2: GGGAAUGGAUCCACAUCUACGAAUUCGUACCAUAGAGAGGUUAUCCGUCUUCACCGAGAUCGGAAGAGCACACGU	nM	17.8
target 2 MT 5'PFS GCU 3'PFS CGA (mixed) RNA 1: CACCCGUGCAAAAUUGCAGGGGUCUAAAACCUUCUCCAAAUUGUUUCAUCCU RNA 2: GGGAAUGGAUCCACAUCUACGAAUUCGCUAGGAUGAAACAAUUUGGAGAAGCGAAGAUCGGAAGAGCACACGU	nM	23

// next entry
[Q] Request the reported Kd associated with target 1 complement block 3-8 (mixed) RNA 1: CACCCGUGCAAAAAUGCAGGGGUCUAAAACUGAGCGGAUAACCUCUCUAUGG RNA 2: GGGAAUGGAUCCACAUCUACGAAUUCGUACCAUAGAGAGGUUAAGGCGACACCGAGAUCGGAAGAGCACACGU
[A] 9.9
